System: Escherichia coli
Assay: Antibacterial activity against Escherichia coli TG1 pET28a plasmid encoded for APH(3')-3a after 12 to 18 hrs
Format: functional
assay metric: log10(MIC) (log10 of the value in µg/mL)
Short version: log10 scale, MIC, µg/mL.

Here are 3 molecules together with their reported answers.
NC[C@@H]1O[C@H](O[C@H]2[C@@H](O)[C@H](O[C@@H]3[C@@H](O)[C@H](N)C[C@H](N)[C@H]3O[C@H]3O[C@H](CN)[C@@H](O)[C@H](O)[C@H]3N)O[C@@H]2CNC(=O)c2cc(-c3ccccc3)nc3ccccc23)[C@H](N)[C@@H](O)[C@@H]1O : 1.51
NCCCC[C@H](N)C(=O)NC[C@H]1O[C@@H](O[C@@H]2[C@@H](O)[C@H](N)C[C@H](N)[C@H]2O[C@H]2O[C@H](CN)[C@@H](O)[C@H](O)[C@H]2N)[C@H](O)[C@@H]1O[C@H]1O[C@@H](CN)[C@@H](O)[C@H](O)[C@H]1N : 1.51
NC[C@@H]1O[C@@H](O[C@H]2[C@H](O)[C@@H](O[C@H]3O[C@H](CO)[C@@H](O)[C@H](N)[C@H]3O)[C@H](N)C[C@@H]2N)[C@@H](O)[C@H](O)[C@H]1O : 2.10

Batch request: log10(MIC) per item, same order as input.
1. NCC[C@H](O)C(=O)N[C@@H]1C[C@H](N)[C@@H](O[C@H]2O[C@H](CN)[C@@H](O)[C@H](O)[C@H]2O)[C@H](O)[C@H]1O[C@H]1O[C@H](CO)[C@@H](O)[C@H](N)[C@H]1O
2. C[C@@H](N)C(=O)NC[C@H]1O[C@@H](O[C@@H]2[C@@H](O)[C@H](N)C[C@H](N)[C@H]2O[C@H]2O[C@H](CN)[C@@H](O)[C@H](O)[C@H]2N)[C@H](O)[C@@H]1O[C@H]1O[C@@H](CN)[C@@H](O)[C@H](O)[C@H]1N

Response:
1: 0.00; 2: 1.81

* * *

Tested on: Escherichia coli
Test: Antibacterial activity against aminoglycoside-susceptible Escherichia coli TG1 after 12 to 18 hrs
Type: functional
Assignment: determine reported MIC for the given molecules.
Numbers only, in µg/mL.

CCCCCCc1cn(C[C@H]2O[C@@H](O[C@@H]3[C@@H](O)[C@H](N)C[C@H](N)[C@H]3O[C@H]3O[C@H](CN)[C@@H](O)[C@H](O)[C@H]3N)[C@H](O)[C@@H]2O[C@H]2O[C@@H](CN)[C@@H](O)[C@H](O)[C@H]2N)nn1 : 8
NC[C@@H]1O[C@H](O[C@H]2[C@@H](O)[C@H](O[C@@H]3[C@@H](O)[C@H](N)C[C@H](N)[C@H]3O[C@H]3O[C@H](CN)[C@@H](O)[C@H](O)[C@H]3N)O[C@@H]2CNC(=O)[C@@H]2CCCN2)[C@H](N)[C@@H](O)[C@@H]1O : 16
CCCCCCC(=O)NC[C@H]1O[C@@H](O[C@@H]2[C@@H](O)[C@H](N)C[C@H](N)[C@H]2O[C@H]2O[C@H](CN)[C@@H](O)[C@H](O)[C@H]2N)[C@H](O)[C@@H]1O[C@H]1O[C@@H](CN)[C@@H](O)[C@H](O)[C@H]1N : 8
NCC(=O)NC[C@H]1O[C@@H](O[C@@H]2[C@@H](O)[C@H](N)C[C@H](N)[C@H]2O[C@H]2O[C@H](CN)[C@@H](O)[C@H](O)[C@H]2N)[C@H](O)[C@@H]1O[C@H]1O[C@@H](CN)[C@@H](O)[C@H](O)[C@H]1N : 8
NC[C@@H]1O[C@H](O[C@H]2[C@@H](O)[C@H](O[C@@H]3[C@@H](O)[C@H](N)C[C@H](N)[C@H]3O[C@H]3O[C@H](CN)[C@@H](O)[C@H](O)[C@H]3N)O[C@@H]2Cn2cc(CNC(=O)C3CCNCC3)nn2)[C@H](N)[C@@H](O)[C@@H]1O : 16

For every record below, what is its MIC?
1. NC[C@@H]1O[C@H](O[C@H]2[C@@H](O)[C@H](O[C@@H]3[C@@H](O)[C@H](N)C[C@H](N)[C@H]3O[C@H]3O[C@H](CN)[C@@H](O)[C@H](O)[C@H]3N)O[C@@H]2Cn2cc(CNC(=O)c3cc(-c4ccccc4)nc4ccccc34)nn2)[C@H](N)[C@@H](O)[C@@H]1O
2. CCCCCCCCCCCCCCCC(=O)NC[C@H]1O[C@@H](O[C@@H]2[C@@H](O)[C@H](N)C[C@H](N)[C@H]2O[C@H]2O[C@H](CN)[C@@H](O)[C@H](O)[C@H]2N)[C@H](O)[C@@H]1O[C@H]1O[C@@H](CN)[C@@H](O)[C@H](O)[C@H]1N
3. NCC[C@H](O)C(=O)NC[C@H]1O[C@@H](O[C@@H]2[C@@H](O)[C@H](N)C[C@H](N)[C@H]2O[C@H]2O[C@H](CN)[C@@H](O)[C@H](O)[C@H]2N)[C@H](O)[C@@H]1O[C@H]1O[C@@H](CN)[C@@H](O)[C@H](O)[C@H]1N

Response:
[8, 2, 16]
